Target: D3R (Homo sapiens)
Sequence (P35462 whole entry): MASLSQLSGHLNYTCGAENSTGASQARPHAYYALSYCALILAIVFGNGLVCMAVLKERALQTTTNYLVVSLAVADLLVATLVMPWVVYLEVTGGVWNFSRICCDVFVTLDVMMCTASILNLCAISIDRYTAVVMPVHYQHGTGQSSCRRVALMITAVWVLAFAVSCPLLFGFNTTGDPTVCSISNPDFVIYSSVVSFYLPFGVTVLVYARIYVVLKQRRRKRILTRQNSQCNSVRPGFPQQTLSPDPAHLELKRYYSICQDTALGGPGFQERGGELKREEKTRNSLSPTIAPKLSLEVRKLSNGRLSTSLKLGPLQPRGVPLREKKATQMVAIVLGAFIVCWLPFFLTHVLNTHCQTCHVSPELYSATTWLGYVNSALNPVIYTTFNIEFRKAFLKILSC
Assay: BRET-based Gi1-activation assay in HEK 293T cells
Conditions: vehicle pretreatment, n = 3; read-out: EC50 of PD128907
Description: The next day we replaced the medium with modified Kreb’s Ringer medium and performed BRET experiments using a Thermo Scientific Varioskan Flash multimode plate reader similarly as previously described. […] To calculate the BRET response, we first subtracted the BRET ratio of cells coexpressing the untagged β1 subunit from the BRET ratio of cells coexpressing Venus-β1. […]
measurement-label: pEC50
Would you please state pEC50, meaning minus log10 of the concentration in mol/L, as a bare number?

In: What value of pEC50 has been recorded for this entry: CCCN1CCO[C@@H]2c3cc(O)ccc3OC[C@H]21
Out: 8.98
